meta.source: paper PMC6273978

System: S. aureus
experimental-protocol: Oxford cup assay, zone of inhibition
Assay type: cell-based
assay-setup: Staphylococcus aureus; 320 µg/mL
Item-by-item account of zone of inhibition at 320 µg/mL
readout-label: zone of inhibition at 320 µg/mL (mm)

{"molecule": "C=C[C@]1(C)C[C@@H](OC(=O)CSc2nc3ccc(NC(=O)c4ccc(C)cc4)cc3[nH]2)[C@]2(C)[C@H](C)CC[C@]3(CCC(=O)[C@H]32)[C@@H](C)[C@@H]1O [Compound 4f]", "number": 17.8}
{"molecule": "C=C[C@]1(C)C[C@@H](OC(=O)CSc2nc3ccc(NC(=O)c4cccc(C)c4)cc3[nH]2)[C@]2(C)[C@H](C)CC[C@]3(CCC(=O)[C@H]32)[C@@H](C)[C@@H]1O [Compound 4e]", "number": 19.4}
{"molecule": "C=C[C@]1(C)C[C@@H](OC(=O)CSc2nc3ccc(NC(=O)c4ccc[nH]4)cc3[nH]2)[C@]2(C)[C@H](C)CC[C@]3(CCC(=O)[C@H]32)[C@@H](C)[C@@H]1O [Compound 4k]", "number": 28.9}

###

System: S. warneri
experimental-protocol: Oxford cup assay, zone of inhibition
Assay type: cell-based
assay-setup: Staphylococcus warneri; 160 µg/mL
Structures can show the parent of a compound that is named as a salt.
Item-by-item account of zone of inhibition at 160 µg/mL

{"compound": "C=C[C@]1(C)C[C@@H](OC(=O)CSCCN(CC)CC)[C@]2(C)[C@H](C)CC[C@]3(CCC(=O)[C@H]32)[C@@H](C)[C@@H]1O [Tiamulin, tiamulin fumarate, reference compound]", "unit-info": "mm", "zone of inhibition at 160 µg/mL": 22.4}
{"compound": "C=C[C@]1(C)C[C@@H](OC(=O)CSc2nc3ccc(NC(=O)c4ccc(C)cc4)cc3[nH]2)[C@]2(C)[C@H](C)CC[C@]3(CCC(=O)[C@H]32)[C@@H](C)[C@@H]1O [Compound 4f]", "unit-info": "mm", "zone of inhibition at 160 µg/mL": 22.9}
{"compound": "C=C[C@]1(C)C[C@@H](OC(=O)CSc2nc3ccc(NC(=O)c4cccc(OC)c4)cc3[nH]2)[C@]2(C)[C@H](C)CC[C@]3(CCC(=O)[C@H]32)[C@@H](C)[C@@H]1O [Compound 4h]", "unit-info": "mm", "zone of inhibition at 160 µg/mL": 17.9}
{"compound": "C=C[C@]1(C)C[C@@H](OC(=O)CSc2nc3ccc(NC(=O)c4ccccc4C)cc3[nH]2)[C@]2(C)[C@H](C)CC[C@]3(CCC(=O)[C@H]32)[C@@H](C)[C@@H]1O [Compound 4d]", "unit-info": "mm", "zone of inhibition at 160 µg/mL": 20.6}
{"compound": "C=C[C@]1(C)C[C@@H](OC(=O)CSc2nc3ccc(NC(=O)c4cccc(C)c4)cc3[nH]2)[C@]2(C)[C@H](C)CC[C@]3(CCC(=O)[C@H]32)[C@@H](C)[C@@H]1O [Compound 4e]", "unit-info": "mm", "zone of inhibition at 160 µg/mL": 20.8}
{"compound": "C=C[C@]1(C)C[C@@H](OC(=O)CSc2nc3ccc(NC(=O)c4ccccc4OC)cc3[nH]2)[C@]2(C)[C@H](C)CC[C@]3(CCC(=O)[C@H]32)[C@@H](C)[C@@H]1O [Compound 4g]", "unit-info": "mm", "zone of inhibition at 160 µg/mL": 18.5}
{"compound": "C=C[C@]1(C)C[C@@H](OC(=O)CSc2nc3ccc(N)cc3[nH]2)[C@]2(C)[C@H](C)CC[C@]3(CCC(=O)[C@H]32)[C@@H](C)[C@@H]1O [Compound 3]", "unit-info": "mm", "zone of inhibition at 160 µg/mL": 28}
{"compound": "C=C[C@]1(C)C[C@@H](OC(=O)CSc2nc3ccc(NC(=O)c4ccc(OC)cc4)cc3[nH]2)[C@]2(C)[C@H](C)CC[C@]3(CCC(=O)[C@H]32)[C@@H](C)[C@@H]1O [Compound 4i]", "unit-info": "mm", "zone of inhibition at 160 µg/mL": 18.6}
{"compound": "C=C[C@]1(C)C[C@@H](OC(=O)CSc2nc3ccc(NC(=O)c4ccc(Cl)cc4)cc3[nH]2)[C@]2(C)[C@H](C)CC[C@]3(CCC(=O)[C@H]32)[C@@H](C)[C@@H]1O [Compound 4c]", "unit-info": "mm", "zone of inhibition at 160 µg/mL": 19.2}
